Listed below: IC50 values for each entry.
# tested target: Pseudomonas aeruginosa LpxC enzyme (Pseudomonas aeruginosa, UniProt P47205)
# Construct: made in house; host or cells: E. coli
# Sequence (P47205 whole entry): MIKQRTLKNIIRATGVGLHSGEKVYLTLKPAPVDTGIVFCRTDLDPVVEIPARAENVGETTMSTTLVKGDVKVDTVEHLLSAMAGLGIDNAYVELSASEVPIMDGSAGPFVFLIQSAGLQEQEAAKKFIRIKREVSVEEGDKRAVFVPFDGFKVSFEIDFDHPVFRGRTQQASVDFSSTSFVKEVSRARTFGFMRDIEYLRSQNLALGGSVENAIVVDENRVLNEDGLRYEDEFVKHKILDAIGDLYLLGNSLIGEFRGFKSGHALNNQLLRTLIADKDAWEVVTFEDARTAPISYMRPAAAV
# protocol: IC50 assay, LpxC enzyme from P. aeruginosa (PA LpxC enzyme IC50)
# Format: biochemical
# test parameters: Table 2; LpxC enzyme 0.1 nM, 25° C., 1 hour; read-out: PA:IC50
Please state the figure in pM; there is no need to write the unit.

Some compounds with known IC50 results, for comparison:
# compound, tested target, observed property, units of measure, assay value
measured = [
    ("COc1c(-c2ccccc2)c(F)cn(CC[C@](C)(C(=O)NO)S(C)(=O)=O)c1=O [Example 39]", "Pseudomonas aeruginosa LpxC enzyme (Pseudomonas aeruginosa, UniProt P47205)", "IC50", "pM", 8070),
    ("COc1ccc(-c2cc(=O)n(CC[C@](C)(C(=O)NO)S(C)(=O)=O)cc2F)cc1C [Example 34]", "Pseudomonas aeruginosa LpxC enzyme (Pseudomonas aeruginosa, UniProt P47205)", "IC50", "pM", 834),
    ("C[C@@](CCn1cc(F)c(-c2ccc(-c3ncccn3)cc2)cc1=O)(C(=O)NO)S(C)(=O)=O [Example 20]", "Pseudomonas aeruginosa LpxC enzyme (Pseudomonas aeruginosa, UniProt P47205)", "IC50", "pM", 945),
]

-- ask Give recorded IC50 with Pseudomonas aeruginosa LpxC enzyme (Pseudomonas aeruginosa, UniProt P47205) for the following compound: C[C@@](CCn1cc(F)c(-c2ccccc2)c(F)c1=O)(C(=O)NO)S(C)(=O)=O [Example 38]
-- reply 550

-- ask Give recorded IC50 with Pseudomonas aeruginosa LpxC enzyme (Pseudomonas aeruginosa, UniProt P47205) for the following compound: Cc1cccc(-c2cc(=O)n(CC[C@](C)(C(=O)NO)S(C)(=O)=O)cc2F)c1 [Example 13]
-- reply 1050

-- ask Give recorded IC50 with Pseudomonas aeruginosa LpxC enzyme (Pseudomonas aeruginosa, UniProt P47205) for the following compound: C[C@@](CCn1cc(F)c(-c2ccc(OC(F)F)c(F)c2)cc1=O)(C(=O)NO)S(C)(=O)=O [Example 35]
-- reply 589

-- ask Give recorded IC50 with Pseudomonas aeruginosa LpxC enzyme (Pseudomonas aeruginosa, UniProt P47205) for the following compound: C[C@@](CCn1cc(F)c(-c2ccc(OC3CC3)cc2)cc1=O)(C(=O)NO)S(C)(=O)=O [Example 46]
-- reply 229

-- ask Give recorded IC50 with Pseudomonas aeruginosa LpxC enzyme (Pseudomonas aeruginosa, UniProt P47205) for the following compound: C[C@@](CCn1cc(F)c(-c2ccc(F)c(F)c2)cc1=O)(C(=O)NO)S(C)(=O)=O [Example 6]
-- reply 833

-- ask Give recorded IC50 with Pseudomonas aeruginosa LpxC enzyme (Pseudomonas aeruginosa, UniProt P47205) for the following compound: C[C@@](CCn1cc(F)c(-c2ccc(F)cc2)cc1=O)(C(=O)NO)S(C)(=O)=O [Example 31]
-- reply 213

-- ask Give recorded IC50 with Pseudomonas aeruginosa LpxC enzyme (Pseudomonas aeruginosa, UniProt P47205) for the following compound: C[C@@](CCn1cc(F)c(-c2ccc3nccnc3c2)cc1=O)(C(=O)NO)S(C)(=O)=O [Example 24]
-- reply 1230

----------
# Tested on: Escherichia coli EC-1: VOGEL, mouse virulent
# protocol: MIC determination, EC-1
# Assay type: cell-based
# test parameters: Escherichia coli, read-out: EC-1 (MIC), Table 3, lower of duplicate values
Mark satisfied only for MIC values smaller than 4 µg/mL; exact matches and larger values are not satisfied.

-- ask Would you kindly verify if MIC of CNC(=O)c1ccc(-c2cc(=O)n(CCC(C)(C(=O)NO)S(C)(=O)=O)cc2F)cc1 (stereo not shown) is strictly less than 4 µg/mL?
-- reply not satisfied

-- ask Would you kindly verify if MIC of CC(CCn1cc(F)c(-c2ccc(F)c(CO)c2)cc1=O)(C(=O)NO)S(C)(=O)=O (stereo not shown) is strictly less than 4 µg/mL?
-- reply not satisfied

-- ask Would you kindly verify if MIC of COc1ccccc1-c1cc(=O)n(CCC(C)(C(=O)NO)S(C)(=O)=O)cc1F (stereo not shown) is strictly less than 4 µg/mL?
-- reply not satisfied

-- ask Would you kindly verify if MIC of CC(C)(C#N)c1ccc(-c2cc(=O)n(CCC(C)(C(=O)NO)S(C)(=O)=O)cc2F)cc1 (stereo not shown) is strictly less than 4 µg/mL?
-- reply not satisfied

-- ask Would you kindly verify if MIC of CC(=O)Nc1cccc(-c2cc(=O)n(CCC(C)(C(=O)NO)S(C)(=O)=O)cc2F)c1 (stereo not shown) is strictly less than 4 µg/mL?
-- reply not satisfied

----------
Listed below: MIC values for each entry.
# Tested on: Escherichia coli EC-1: VOGEL, mouse virulent
# protocol: MIC determination, EC-1
# Assay type: cell-based
# test parameters: Escherichia coli, read-out: EC-1 (MIC), Table 2, lower of duplicate values

Some molecules with known MIC results, for comparison:
# smiles data, MIC
data = [
    ("C[C@@](CCn1cc(F)c(-c2ccc(OC3COC3)cc2)cc1=O)(C(=O)NO)S(C)(=O)=O", "16 µg/mL"),
    ("COc1c(-c2ccccc2)c(F)cn(CC[C@](C)(C(=O)NO)S(C)(=O)=O)c1=O", "4 µg/mL"),
    ("Cc1cccc(-c2cc(=O)n(CC[C@](C)(C(=O)NO)S(C)(=O)=O)cc2F)c1F", "0.25 µg/mL"),
]

-- ask Which MIC reading was recorded for the molecule C[C@@](CCn1cc(F)c(-c2ccc(OC[C@H]3CC[C@H](O)CC3)cc2)cc1=O)(C(=O)NO)S(C)(=O)=O ?
-- reply 0.125 µg/mL

-- ask Which MIC reading was recorded for the molecule C[C@@](CCn1cc(F)c(-c2ccc(OC(F)F)cc2)cc1=O)(C(=O)NO)S(C)(=O)=O ?
-- reply 0.5 µg/mL

-- ask Which MIC reading was recorded for the molecule C[C@@](CCn1cc(F)c(-c2ccc(-n3nccn3)cc2)cc1=O)(C(=O)NO)S(C)(=O)=O ?
-- reply ≤ 0.06 µg/mL

-- ask Which MIC reading was recorded for the molecule Cc1ccc(-c2cc(=O)n(CC[C@](C)(C(=O)NO)S(C)(=O)=O)cc2F)cc1 ?
-- reply 0.5 µg/mL

-- ask Which MIC reading was recorded for the molecule C[C@@](CCn1cc(F)c(-c2ccc(F)c(F)c2)cc1=O)(C(=O)NO)S(C)(=O)=O ?
-- reply 1 µg/mL

----------
# tested target: Pseudomonas aeruginosa LpxC enzyme (Pseudomonas aeruginosa)
# Construct: made in house; host or cells: E. coli
# protocol: IC50 assay, LpxC enzyme from P. aeruginosa (PA LpxC enzyme IC50)
# Type: biochemical
# test parameters: Table 3; LpxC enzyme 0.1 nM, 25° C., 1 hour; read-out: PA:IC50
pIC50: −log10 of the molar value.
Given measured pIC50, output 1 if it is greater than or equal to 8 and -1 if not.

Worked cases, answers included:
# molecule, tested target, answer label
records = [
    ("Cc1ncc(-c2cc(=O)n(CCC(C)(C(=O)NO)S(C)(=O)=O)cc2F)cc1F (centres unmarked)", "Pseudomonas aeruginosa LpxC enzyme (Pseudomonas aeruginosa)", -1),
    ("CC(CCn1cc(F)c(-c2ccc3c(c2)CCO3)cc1=O)(C(=O)NO)S(C)(=O)=O (centres unmarked)", "Pseudomonas aeruginosa LpxC enzyme (Pseudomonas aeruginosa)", 1),
    ("CC(CCn1cc(F)c(-c2cccc(F)c2)cc1=O)(C(=O)NO)S(C)(=O)=O (centres unmarked)", "Pseudomonas aeruginosa LpxC enzyme (Pseudomonas aeruginosa)", 1),
    ("CC(CCn1cc(F)c(-c2ccc(O)cc2)cc1=O)(C(=O)NO)S(C)(=O)=O (centres unmarked)", "Pseudomonas aeruginosa LpxC enzyme (Pseudomonas aeruginosa)", 1),
]

-- ask hey, is pIC50 for this one >= 8? CC(CCn1cc(F)c(-c2ccc(CCC#N)cc2)cc1=O)(C(=O)NO)S(C)(=O)=O (centres unmarked)
-- reply 1

----------
# System: Escherichia coli EC-1: VOGEL, mouse virulent
# protocol: MIC determination, EC-1
# Assay type: cell-based
# test parameters: Escherichia coli, read-out: EC-1 (MIC), Table 3, lower of duplicate values
observed property: MIC (µg/mL)
Please state the figure in µg/mL; there is no need to write the unit.

Some compounds with known MIC results, for comparison:
# compound, units of measure, assay value
measured = [
    ("CC(CCn1cc(F)c(-c2ccc(Cl)c(O)c2)cc1=O)(C(=O)NO)S(C)(=O)=O (stereo not shown)", "µg/mL", 32),
    ("CC(CCn1cc(F)c(-c2cnc3ccoc3c2)cc1=O)(C(=O)NO)S(C)(=O)=O (stereo not shown)", "µg/mL", 64),
    ("Cc1ccc2ccc(-c3cc(=O)n(CCC(C)(C(=O)NO)S(C)(=O)=O)cc3F)cc2n1 (stereo not shown)", "µg/mL", 16),
    ("COc1cc(-c2cc(=O)n(CCC(C)(C(=O)NO)S(C)(=O)=O)cc2F)ccc1F (stereo not shown)", "µg/mL", 16),
    ("CCOc1ccc(-c2cc(=O)n(CCC(C)(C(=O)NO)S(C)(=O)=O)cc2F)cn1 (stereo not shown)", "µg/mL", 2),
    ("COc1cc(C#N)ccc1-c1cc(=O)n(CCC(C)(C(=O)NO)S(C)(=O)=O)cc1F (stereo not shown)", "µg/mL", 64),
]

Next item in the queue.
-- ask Which MIC reading was recorded for the compound COCc1cccc(-c2cc(=O)n(CCC(C)(C(=O)NO)S(C)(=O)=O)cc2F)c1 (stereo not shown) ?
-- reply 32
